subject_of_test: T1, recombinant extracellular domain (ECD) of human TF, amino acid 1-219 of the mature chain, C-terminal His6-tag (human, UniProt P13726 33-251)
T1 construct: expressed in a mammalian system; used for ELISA and Biacore; biotinylated by NHS-ester for the Fab ELISA; also called His6-TF-ECD1-219; HumanTF1-219
run_description: Biacore
measure_name: Kd (nM)
Just the number please, in nM, no unit attached.

Below, each entry is followed by its recorded Kd result.
binder: M1589 (antibody, V domains shown, complete MAb; FR4 is its own entry; also called H187/L3) VH: EVQLVQSGAEVKKPGESLRISCKGSGYTFGPHWIEWVRQMPGKGLEWMGDILPGTGYTNYSPSFQGHVTISADKSISTAYLQWSSLKASDTAMYYCARSGYYGNSGFAYWGQGTLVTVSS VL: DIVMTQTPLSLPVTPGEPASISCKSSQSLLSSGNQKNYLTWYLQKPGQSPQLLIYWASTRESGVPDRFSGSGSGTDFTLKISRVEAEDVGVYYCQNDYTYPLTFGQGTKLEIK
Kd (nM): 0.4
--
binder: M42 (antibody, V domains shown, complete MAb; FR4 is its own entry; also called H19/L7) VH: QVQLVQSGAEVKKPGSSVKVSCKASGYTFITYWIEWVRQAPGQGLEWMGDILPGSGSTNYNENFKGRVTITADESTSTAYMELSSLRSEDTAVYYCARSGYYGNSGFAYWGQGTLVTVSS VL: DIVMTQTPLSSPVTLGQPASISCKSSQSLLSSGNQKNYLTWLQQRPGQPPRLLIYWASTRESGVPDRFSGSGAGTDFTLKISRVEAEDVGVYYCQNDYTYPLTFGQGTKLEIK
Kd (nM): 1.02
--
binder: M1612 (antibody, V domains shown, complete MAb; FR4 is its own entry; also called H133/L3; TF7M1612) VH: EVQLVQSGAEVKKPGESLRISCKGSGYTFNPYWIEWVRQMPGKGLEWMGDILPGTGYTNYSPSFQGHVTISADKSISTAYLQWSSLKASDTAMYYCARSGYYGNSGFAYWGQGTLVTVSS VL: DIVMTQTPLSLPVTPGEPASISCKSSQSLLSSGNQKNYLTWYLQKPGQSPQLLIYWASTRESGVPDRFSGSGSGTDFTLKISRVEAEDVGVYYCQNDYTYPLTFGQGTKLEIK
Kd (nM): 0.38
--
binder: M60 (antibody, V domains shown, complete MAb; FR4 is its own entry; also called H22/L4) VH: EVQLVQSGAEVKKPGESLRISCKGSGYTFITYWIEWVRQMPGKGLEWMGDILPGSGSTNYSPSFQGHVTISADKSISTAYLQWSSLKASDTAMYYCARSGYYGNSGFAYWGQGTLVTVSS VL: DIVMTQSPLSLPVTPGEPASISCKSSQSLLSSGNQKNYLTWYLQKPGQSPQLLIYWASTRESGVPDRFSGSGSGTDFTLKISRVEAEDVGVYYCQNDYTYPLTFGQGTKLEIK
Kd (nM): 0.47

Please examine the following record next.
Find the recorded Kd belonging to M9 (antibody, V domains shown, complete MAb; FR4 is its own entry; also called H15/L2) VH: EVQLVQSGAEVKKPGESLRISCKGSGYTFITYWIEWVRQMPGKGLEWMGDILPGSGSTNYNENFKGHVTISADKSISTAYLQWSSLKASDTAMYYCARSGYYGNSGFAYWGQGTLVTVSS VL: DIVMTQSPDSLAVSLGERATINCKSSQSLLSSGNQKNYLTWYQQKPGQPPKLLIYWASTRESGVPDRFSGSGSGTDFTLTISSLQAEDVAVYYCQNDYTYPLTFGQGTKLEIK and report it.
0.61
